- STUDY TARGET: MBP-BAX 1-166 C62S C126S, biotinylated (Avi tag, 6-histidine tag) (human), Q07812
- Sequence (Q07812 1-166 C62S/C126S): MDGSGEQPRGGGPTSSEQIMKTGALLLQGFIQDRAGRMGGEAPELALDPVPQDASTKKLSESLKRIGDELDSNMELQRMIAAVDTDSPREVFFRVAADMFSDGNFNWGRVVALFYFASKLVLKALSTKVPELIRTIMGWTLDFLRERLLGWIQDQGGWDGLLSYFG
- ASSAY COMMENT: BLI; Octet RED96; biotinylated BCL-2 family proteins (25 nM) immobilised on streptavidin biosensors, designed protein in solution; 10 mM Hepes pH 7.4, 150 mM NaCl, 3 mM EDTA, 0.05% surfactant P20, 0.5% nonfat dry milk; titrations in triplicate, 1:1 binding model
PROPERTY LABEL: Kd (nM)
# unit: nM | format: bare number

Given the entry SESQEDIIRNIARHLAQVGDSMDRSIPPGLVNGL (domain or fragment, modifications not checked) [MBP-fused BH3 peptide from BID] , report its measured Kd.
464

Cited source for all entries: paper PMC12412652
